# measured.target: Vasopressin V1b receptor (Homo sapiens) (UniProt P47901)
# Sequence (P47901 whole entry, looked up): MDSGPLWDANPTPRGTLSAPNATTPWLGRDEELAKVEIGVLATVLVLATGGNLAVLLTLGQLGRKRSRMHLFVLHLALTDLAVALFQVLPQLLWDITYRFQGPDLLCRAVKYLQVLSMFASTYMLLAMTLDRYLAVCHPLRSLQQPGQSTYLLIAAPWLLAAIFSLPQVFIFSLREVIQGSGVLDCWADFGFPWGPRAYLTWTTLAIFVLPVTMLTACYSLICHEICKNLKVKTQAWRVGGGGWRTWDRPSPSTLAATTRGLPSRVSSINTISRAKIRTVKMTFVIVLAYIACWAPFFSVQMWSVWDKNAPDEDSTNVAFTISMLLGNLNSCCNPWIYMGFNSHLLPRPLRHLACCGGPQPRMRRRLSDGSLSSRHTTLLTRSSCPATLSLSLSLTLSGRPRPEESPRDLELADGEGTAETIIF
# test.description: Counterscreen Concentration-Response Assay for Antagonists of the Neuropeptide S Receptor: Vasopressin Receptor Calcium Signal Transduction
# conditions.used: CHO-AVPR1B, vasopressin-stimulated calcium fluorescence, FDSS
Inconclusive results are not listed.
reported.endpoint: max response (%)
Answers are plain numbers, in %.

CCC(C)(CCN1CCOCC1)N(Cc1cc2ccccc2n(C)c1=O)C(=O)C1CCCCC1 (centres undefined)
-9.76
COc1ccc(C2c3c(n(Cc4ccccc4)cnc3=N)Oc3ccc4ccccc4c32)cc1OC (centres undefined)
-20.3
COc1ccc(C2c3c(ncn(CCN4CCOCC4)c3=N)Oc3ccc4ccccc4c32)cc1 (centres undefined)
-23.1
COc1cccc(C2c3c(ncn(-c4ccc(F)cc4)c3=N)Oc3ccc4ccccc4c32)c1 (centres undefined)
-36.5
Cc1c(P(=S)(c2ccccc2)c2ccccc2)c2ccccc2n1C/C=C/c1ccccc1
0.93
N=c1c2c(ccn1-c1ccccc1)Oc1ccc3ccccc3c1C2c1ccccc1 (centres undefined)
-28.3

For the 3 compounds below, give their max response values.
1. COc1cccc(C2c3c(ncn(-c4ccc(NC(C)=O)cc4)c3=N)Oc3ccc4ccccc4c32)c1 (centres undefined)
2. COc1cccc(C2c3c(ncn(-c4cccnc4)c3=N)Oc3ccc4ccccc4c32)c1 (centres undefined)
3. COc1cccc(C2c3c(ncn(-c4ccccc4C#N)c3=N)Oc3ccc4ccccc4c32)c1 (centres undefined)

(A)
1. -34.2
2. -4.29
3. 2.63

* * *

# measured.target: Vasopressin V1b receptor (Homo sapiens) (UniProt P47901)
# test.description: Counterscreen Concentration-Response Assay for Antagonists of the Neuropeptide S Receptor: Vasopressin Receptor Calcium Signal Transduction
# conditions.used: CHO-AVPR1B, vasopressin-stimulated calcium fluorescence, FDSS
Records with an inconclusive call do not appear.
Record form. Attribute: max response. Fill in for each entry.
Numbers only, in %.

Previously resolved entries follow.
N=c1c2c(ccn1CCCCc1ccccc1)Oc1ccc3ccccc3c1C2c1ccccc1 (stereo unspecified)
19.5
N=c1c2c(ccn1CCCc1ccccc1)Oc1ccc3ccccc3c1C2c1ccccc1 (stereo unspecified)
-23.7
COc1ccc(C2c3c(ncn(CCN4CCOCC4)c3=N)Oc3ccc4ccccc4c32)cc1OC (stereo unspecified)
-15.6
CCOC(=O)CC(=O)Nc1ncnc2c1C(c1ccccc1)c1c(ccc3ccccc13)O2 (stereo unspecified)
-17.5

Batch of 2 molecules: report max response for each.
1. Cc1c(P(=S)(c2ccccc2)c2ccccc2)c2ccccc2n1Cc1ccccc1
2. Cc1c(P(=S)(c2ccccc2)c2ccccc2)[n+]2ccccc2n1CCCc1ccccc1

(A)
1: 0.753; 2: -9.72

Please state max response for every molecule in the list that follows.
1. COc1ccc(C2c3c(nc(Cc4ccccc4)[nH]c3=O)Oc3ccc4ccccc4c32)cc1OC (stereo unspecified)
2. O=C(Cc1ccccc1)Nc1ncnc2c1C(c1ccccc1)c1c(ccc3ccccc13)O2 (stereo unspecified)
3. COc1cccc(C2c3c(ncn(-c4ccc(C(C)(C)C)cc4)c3=N)Oc3ccc4ccccc4c32)c1 (stereo unspecified)
4. COc1cccc(C2c3c(ncn(-c4ccccc4)c3=N)Oc3ccc4ccccc4c32)c1 (stereo unspecified)
5. COc1cccc(C2c3c(ncn(-c4ccc(-c5ccccc5)cc4)c3=N)Oc3ccc4ccccc4c32)c1 (stereo unspecified)

(A)
[14.7, 7.19, 17.5, -8.43, -10.6]

* * *

# measured.target: Vasopressin V1b receptor (Homo sapiens)
# test.description: Counterscreen Concentration-Response Assay for Antagonists of the Neuropeptide S Receptor: Vasopressin Receptor Calcium Signal Transduction
# conditions.used: CHO-AVPR1B, vasopressin-stimulated calcium fluorescence, FDSS
Inconclusive results are not listed.
reported.endpoint: max response (%)
Answers are plain numbers, in %.

A selection of reference data follows.
COc1cccc(C2c3c(ncn(-c4ccccc4C(C)(C)C)c3=N)Oc3ccc4ccccc4c32)c1 (stereo not given)
9.94
COc1cccc(C2c3c(ncn(-c4ccccc4Cl)c3=N)Oc3ccc4ccccc4c32)c1 (stereo not given)
1.44
COc1cccc(C2c3c(ncn(-c4ccncc4)c3=N)Oc3ccc4ccccc4c32)c1 (stereo not given)
23.2
COc1cccc(C2c3c(ncn(-c4ccccc4OC)c3=N)Oc3ccc4ccccc4c32)c1 (stereo not given)
-19.5
COc1cccc(C2c3c(ncn(-c4cccc(Br)c4)c3=N)Oc3ccc4ccccc4c32)c1 (stereo not given)
-12.3
COc1cccc(C2c3c(ncn(-c4ccccc4)c3=N)Oc3ccc4ccccc4c32)c1OC (stereo not given)
-5.77

Batch request: max response per item, same order as input.
1. Cc1c(P(=S)(c2ccccc2)c2ccccc2)c2ccccc2n1CCCc1ccccc1
2. N#CC1=C(NC=NCc2ccccc2)Oc2ccc3ccccc3c2C1c1ccccc1 (stereo not given)
3. O=C(NCc1ccccc1)Nc1ncnc2c1C(c1ccccc1)c1c(ccc3ccccc13)O2 (stereo not given)
4. CCOC(=O)c1ccc(-n2cnc3c(c2=N)C(c2cccc(OC)c2)c2c(ccc4ccccc24)O3)cc1 (stereo not given)

(A)
1. 8.85
2. -19
3. -5.16
4. 17.2
